assayInfo: chemical genetic growth profiling, strain panel (AID 1159580);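 note: tested at 20 µM; growth read once vehicle control cultures reached saturation at 30 °C; 1 = growth at the plate median or of vehicle wells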
testConditions: S. cerevisiae deletion strains, growth OD, locus YER110C, stronger effect = lower value
The whole screen tested about 5,500 compounds, of which about 2,000 (36%) were called active. Inconclusive results (about 18%) are left out. The list shows a part of the results.
Measured normalized growth by item
Please respond with just the number, no unit label.

Recorded results for 8 compounds are shown here.
1) CC(C)(C)CC(C)(C)c1ccc(O)c(Cc2ccc(Cl)cc2Cl)c1 | 1.02
2) C/C1=C\CCC(=O)C2CC(C)(C)C2CC1 (stereo unspecified) | 1.04
3) C=C1CCC2C(CC2(C)C)C(=C)CC/C1=N\O (stereo unspecified) | 1.02
4) O=C1NC(=O)C(=O)C(=O)N1 | 0.988
5) C=C1CCC(OC(C)=O)/C(C)=C/C[C@@H]2[C@@H]1CC2(C)C (stereo partly specified) | 1.03
6) Oc1ccc(Cl)cc1 | 0.973
7) COC(=O)C1=CCCN(C)C1 | 0.969
8) Cc1ccc(C)c(OCCCC(C)(C)C(=O)O)c1 | 0.937

Any idea what normalized growth was measured for COC(=O)C[C@H]1C(C)(C)C(=O)[C@@H]2CC3=C(CC[C@]4(C)C3=CC(=O)O[C@H]4c3ccoc3)[C@@]1(C)C2=O ?
1.02

Also need Oc1ccc(Cl)cc1Cc1cc(Cl)ccc1O , thanks.
0.0746

Also need OCc1ccccc1O , thanks.
0.995

----------
assayInfo: chemical genetic growth profiling, strain panel (AID 1159580)
testConditions: S. cerevisiae deletion strains, growth OD, locus YLR384C, strain iki3, stronger effect = lower value
The whole screen tested about 5,500 compounds, of which about 2,000 (36%) were called active. Inconclusive results (about 18%) are left out. This is one part of the list.
Measured normalized growth by item
Please respond with just the number, no unit label.

Recorded results for 2 compounds are shown here.
1. C=C1CCC(OC(C)=O)/C(C)=C/C[C@@H]2[C@@H]1CC2(C)C (stereo partly drawn) | 0.999
2. CC(C)COCC(CN(Cc1ccccc1)c1ccccc1)N1CCCC1 (stereo not drawn) | 1.03

Let us examine a further case.
Any idea what normalized growth was measured for OCc1ccccc1O ?
1.01

----------
Measured normalized growth by item
assayInfo: chemical genetic growth profiling, strain panel (AID 1159580)
testConditions: S. cerevisiae deletion strains, growth OD, locus YNL250W, strain rad50, stronger effect = lower value
Screen size: about 5,500 compounds; about 2,000 (36%) were called active. Not shown: some 18% with an inconclusive outcome. The list shows a part of the results.
Please respond with just the number, no unit label.

Recorded results for 4 compounds are shown here.
1. CC1(C)O[C@@H]2CC3C4CCC5=CC(=O)CCC5(C)C4(F)C(O)CC3(C)[C@]2(C(=O)CCl)O1 (stereo not given in full) | 0.987
2. CC(=O)N[C@@H](CS)C(=O)O | 1.01
3. NC(=O)c1cccc(N)c1 | 0.988
4. O=C(O)CN(CC(=O)O)Cc1cc2c(-c3ccccc3C(=O)O)c3cc(CN(CC(=O)O)CC(=O)O)c(=O)cc-3oc2cc1O | 1.01

Let us examine a further case.
Any idea what normalized growth was measured for COc1cc(-c2coc3cc(OCc4ccccc4)c(OC)c(O)c3c2=O)cc(OCc2ccccc2)c1OC ?
0.971

----------
assayInfo: chemical genetic growth profiling, strain panel (AID 1159580)
testConditions: S. cerevisiae deletion strains, growth OD, locus YDL074C, strain BRE1
In all, about 5,500 compounds went through this assay and about 2,000 (36%) were called active. About 18% were inconclusive and are not listed. No stated cut-off is given here; in the data, active means normalized growth mostly below about 0.91 (no sharp cut-off); inconclusive means no clear call, values can overlap the other calls; inactive means mostly above about 0.92. The list shows a part of the results.
Answer with one of the outcomes given here: label 1 (active), label 0 (inactive)

Check out these entries, answers already filled in.
1. COc1cc(-c2coc3cc(OCc4ccccc4)c(OC)c(O)c3c2=O)cc(O)c1OC | label 1
2. O=C1[C@H](CCC(O)c2ccc(F)cc2)[C@@H](c2ccc(O)cc2)N1c1ccc(F)cc1 (stereo partly drawn) | label 0
3. COC(=O)C1=CCCN(C)C1 | label 0
4. COc1ccc2c(c1)CCC(c1ccccc1)=C2c1ccc(OCCN2CCCC2)cc1 | label 1
5. CCCCNc1ccc(C(=O)OCCN(C)C)cc1 | label 0
6. CCOC(=O)[C@H](CCc1ccccc1)N[C@@H](C)C(=O)N1[C@H](C(=O)O)C[C@@H]2CCC[C@@H]21 | label 0

Hi, sorry to bother you, what did the test record for OC(Cn1cncn1)(Cn1cncn1)c1ccc(F)cc1F ?
label 0

Also need CCCCN(CCCC)CCCOC(=O)c1ccc(N)cc1 , thanks.
label 0

Also need O=C(C1CCCCC1)N1CC(=O)N2CCc3ccccc3C2C1 (stereo not drawn) , thanks.
label 0

Also need CC1(C)NC(=O)N(c2ccc([N+](=O)[O-])c(C(F)(F)F)c2)C1=O , thanks.
label 0

Also need NS(=O)(=O)c1cc2c(cc1Cl)NC(C(Cl)Cl)NS2(=O)=O (stereo not drawn) , thanks.
label 0

Also need COc1ccc(CCN2CCC(Nc3nc4ccccc4n3Cc3ccc(F)cc3)CC2)cc1 , thanks.
label 0

Also need CCCC(=O)O[C@]1(C(=O)CO)CCC2[C@@H]3CCC4=CC(=O)CC[C@]4(C)C3[C@@H](O)C[C@@]21C (stereo partly drawn) , thanks.
label 0

----------
assayInfo: chemical genetic growth profiling, strain panel (AID 1159580)
testConditions: S. cerevisiae deletion strains, growth OD, strain NNK1
The campaign covered roughly 5,500 compounds. About 2,000 (36%) were called active. About 18% were inconclusive and are not listed. Rule as the data show it: active = normalized growth mostly below about 0.91 (no sharp cut-off); inconclusive = no clear call, values can overlap the other calls; inactive = mostly above about 0.92. This is one part of the list.
Answer with one of the outcomes given here: TRUE (active), FALSE (inactive)

1) CC(C)(CCC(C)(C)N1C(=O)c2cccc3cccc(c23)C1=O)N1C(=O)c2cccc3cccc(c23)C1=O | TRUE
2) Cc1nc(-c2ccc(S(=O)(=O)Nc3ccc(Br)cc3Cl)s2)cs1 | FALSE
3) Cc1cccc(NC(=S)NNC(=O)CSCc2cccc3ccccc23)c1 | FALSE
4) FC(F)(F)c1cccc(-n2c(CSCc3cccc4ccccc34)n[nH]c2=S)c1 | FALSE
5) S=c1[nH]nc(Nc2ccc(I)cc2)s1 | FALSE

Hi, sorry to bother you, what did the test record for O=C(Nc1ccc(OC(F)(F)F)cc1)OC1CN(C(c2ccccc2)c2ccccc2)C1 ?
FALSE

Also need Cc1ccc(NS(=O)(=O)c2ccc(-c3csc(C)n3)s2)c(C)c1 , thanks.
FALSE

Also need CC(=O)Nc1ccc(S(=O)(=O)Nc2ccccc2Oc2ccc(Cl)cc2Cl)cc1 , thanks.
FALSE

Also need CCc1ccn2cc(Nc3ccccc3Cl)nc2c1 , thanks.
FALSE

----------
Measured normalized growth by item
assayInfo: chemical genetic growth profiling, strain panel (AID 1159580);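 note: tested at 20 µM; growth read once vehicle control cultures reached saturation at 30 °C; 1 = growth at the plate median or of vehicle wells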
testConditions: S. cerevisiae deletion strains, growth OD, locus YKL085W, strain MDH1 (second series), stronger effect = lower value
Hit rate of the full screen: of about 5,500 compounds, about 2,000 (36%) were called active. Not shown: some 18% with an inconclusive outcome. The list shows a part of the results.
Please respond with just the number, no unit label.

Recorded results for 2 compounds are shown here.
1) CC(C)C(=O)Nc1ccc([N+](=O)[O-])c(C(F)(F)F)c1 | 0.987
2) O=C(Cn1ccnc1[N+](=O)[O-])NCCO | 1.03

Let us examine a further case.
Any idea what normalized growth was measured for O=c1cc[nH]c(=S)[nH]1 ?
1.01

----------
assayInfo: chemical genetic growth profiling, strain panel (AID 1159580);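 note: tested at 20 µM; growth read once vehicle control cultures reached saturation at 30 °C; 1 = growth at the plate median or of vehicle wells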
testConditions: S. cerevisiae deletion strains, growth OD, locus YJL095W, strain BCK1
About 2,000 (36%) of roughly 5,500 compounds were called active. Roughly 18% stayed inconclusive and do not appear here. Rule as the data show it: active = normalized growth mostly below about 0.91 (no sharp cut-off); inconclusive = no clear call, values can overlap the other calls; inactive = mostly above about 0.92. The list shows a part of the results.
Answer with one of the outcomes given here: T = active, F = inactive

Hi, sorry to bother you, what did the test record for OCCOCCN1CCN(C2=Nc3ccccc3Sc3ccccc32)CC1 ?
F

Also need C[C@H]1CC[C@@H](C(C)(C)O)CC2=C1CC[C@@H]2C , thanks.
F

Also need CC(=O)OCC[C@H](C)CCC=C(C)C , thanks.
F

Also need O=C(O)CN(CC(=O)O)Cc1cc2c(-c3ccccc3C(=O)O)c3cc(CN(CC(=O)O)CC(=O)O)c(=O)cc-3oc2cc1O , thanks.
F

Also need O=c1c2ccccc2[nH]c(=S)n1-c1cccc(C(F)(F)F)c1 , thanks.
T

Also need O=S1OCC2C(CO1)C1(Cl)C(Cl)=C(Cl)C2(Cl)C1(Cl)Cl (stereo not given) , thanks.
F

----------
assayInfo: chemical genetic growth profiling, strain panel (AID 1159580);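 note: tested at 20 µM; growth read once vehicle control cultures reached saturation at 30 °C; 1 = growth at the plate median or of vehicle wells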
testConditions: S. cerevisiae deletion strains, growth OD, locus YGL173C, strain kem1
Screen size: about 5,500 compounds; about 2,000 (36%) were called active. Roughly 18% stayed inconclusive and do not appear here. Rule as the data show it: active = normalized growth mostly below about 0.91 (no sharp cut-off); inconclusive = no clear call, values can overlap the other calls; inactive = mostly above about 0.92. The list shows a part of the results.
Answer with one of the outcomes given here: active, inactive

Check out these entries, answers already filled in.
1) CCOC(=O)Nc1nc2ccccc2[nH]1 | inactive
2) CCCOc1ccc(C(=O)OCCN(CC)CC)cc1N | inactive
3) Cc1c(S(=O)(=O)O)oc2c1C(=O)C(=O)c1c-2ccc2c1CCCC2(C)C | inactive
4) Cc1ccc(C)c(OCCCC(C)(C)C(=O)O)c1 | inactive
5) CCC(C)C(=O)O[C@H]1C[C@H](O)C=C2C=C[C@H](C)[C@H](CC[C@@H](O)C[C@@H](O)CC(=O)O)C21 (some centres undefined) | inactive
6) CC(C)(C)CC(C)(C)c1ccc(O)c(Cc2ccc(Cl)cc2Cl)c1 | inactive
7) CCCCCCOc1ccccc1C(N)=O | inactive
8) C[N+]1(C)C2CC(OC(=O)[C@@H](CO)c3ccccc3)CC1C1OC12 (some centres undefined) | inactive
9) CC(C)COCC(CN(Cc1ccccc1)c1ccccc1)N1CCCC1 (centres undefined) | inactive
10) Clc1cccc(Cl)c1NC1=NCCN1 | inactive

Hi, sorry to bother you, what did the test record for NC(CO)C(=O)NNCc1ccc(O)c(O)c1O (centres undefined) ?
inactive

Also need CO/N=C(\C(=O)N[C@@H]1C(=O)N2C(C(=O)O)=C(COC(C)=O)CS[C@H]12)c1csc(N)n1 , thanks.
inactive

Also need CC1C[C@H]2CC(=O)[C@H]3CCCN4CCC[C@H]2[C@]34C1 (some centres undefined) , thanks.
inactive

Also need Oc1ccc(Cl)cc1Cc1cc(Cl)ccc1O , thanks.
active

Also need CCOC(=O)[C@H](CCc1ccccc1)N[C@@H](C)C(=O)N1[C@H](C(=O)O)C[C@@H]2CCC[C@@H]21 , thanks.
inactive

Also need CC(C)NCC(O)COc1cccc2ccccc12 (centres undefined) , thanks.
inactive

Also need NS(=O)(=O)c1cc2c(cc1Cl)NC(C(Cl)Cl)NS2(=O)=O (centres undefined) , thanks.
inactive

Also need CCCC(=O)O[C@]1(C(=O)CO)CCC2[C@@H]3CCC4=CC(=O)CC[C@]4(C)C3[C@@H](O)C[C@@]21C (some centres undefined) , thanks.
inactive

Also need OCc1ccccc1O , thanks.
inactive

Also need COc1cc2occ(-c3ccccc3)c(=O)c2c(OC)c1C , thanks.
inactive

Also need CCCCN(CCCC)CCCOC(=O)c1ccc(N)cc1 , thanks.
inactive

Also need CCCCOC(=O)c1ccccc1C(=O)OCCCC , thanks.
inactive

Also need O=C1CC2OCC=C3CN4CC[C@]56c7ccccc7N1C5[C@H]2[C@H]3CC46 (some centres undefined) , thanks.
inactive

Also need CCCCNc1ccc(C(=O)OCCN(C)C)cc1 , thanks.
inactive

Also need O=c1[nH]oc2c1CCNC2 , thanks.
inactive

Also need CC(C)C(C)/C=C/C(C)C1CCC2C3=CC=C4CC(O)CCC4(C)C3CCC21C (centres undefined) , thanks.
inactive

Also need COC(=O)C1=CCCN(C)C1 , thanks.
inactive

Also need NC(N)=NS(=O)(=O)c1ccc(N)cc1 , thanks.
inactive

Also need CN1C(C(=O)Nc2ccccn2)=C(O)c2ccccc2S1(=O)=O , thanks.
inactive
